Recorded values, source ChEMBL document CHEMBL4610129.

- targetSystem: Dual specificity calcium/calmodulin-dependent 3',5'-cyclic nucleotide phosphodiesterase 1C (Homo sapiens)
- Sequence (Q14123 whole entry, the tested form may be a part): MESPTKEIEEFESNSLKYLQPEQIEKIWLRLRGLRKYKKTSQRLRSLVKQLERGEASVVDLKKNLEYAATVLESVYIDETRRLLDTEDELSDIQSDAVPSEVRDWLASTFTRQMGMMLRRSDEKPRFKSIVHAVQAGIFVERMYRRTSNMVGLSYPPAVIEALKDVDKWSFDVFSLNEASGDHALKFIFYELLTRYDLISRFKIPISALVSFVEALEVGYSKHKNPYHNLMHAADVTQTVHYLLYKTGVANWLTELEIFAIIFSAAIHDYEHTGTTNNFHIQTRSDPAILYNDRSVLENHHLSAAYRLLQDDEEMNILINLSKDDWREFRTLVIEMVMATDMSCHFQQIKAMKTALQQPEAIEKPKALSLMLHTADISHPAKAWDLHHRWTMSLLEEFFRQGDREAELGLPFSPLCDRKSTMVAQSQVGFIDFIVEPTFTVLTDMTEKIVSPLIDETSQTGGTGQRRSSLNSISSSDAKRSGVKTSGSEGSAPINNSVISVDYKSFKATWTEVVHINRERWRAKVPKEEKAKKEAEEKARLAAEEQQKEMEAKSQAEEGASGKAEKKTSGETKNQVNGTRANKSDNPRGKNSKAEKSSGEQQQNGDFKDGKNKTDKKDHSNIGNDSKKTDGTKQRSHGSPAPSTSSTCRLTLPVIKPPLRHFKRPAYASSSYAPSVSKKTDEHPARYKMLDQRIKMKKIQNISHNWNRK
- test: Inhibition of PDE1C2 (147 to 531 residues) (unknown origin) at 100 nM using [3H]-cGMP substrate incubated for 15 mins by liquid scintillation counting method relative to control
If the reported inhibition equals or exceeds 20%, assign label 1. If not, assign label 0.

Study these solved cases before continuing.
CCn1c(N[C@H](C)c2ccc(Cl)cc2)nc2c(cnn2C2CCCC2)c1=O :: label 0
CC(C)n1ncc2c(=O)n(Cc3ccsc3)c(N[C@H](C)c3ccc(Cl)cc3)nc21 :: label 1
CC(C)Cn1c(N[C@H](C)c2ccc(Cl)cc2)nc2c(cnn2C2CCCC2)c1=O :: label 0

Q. Is reported inhibition greater than or equal to 20% here: `CC(C)(C)n1ncc2c(=O)n(Cc3ccc(F)cc3)c(N[C@H]3CCc4ccccc43)nc21`
A. label 1

Q. Quick check, inhibition >= 20%? `CC(C)n1ncc2c(=O)n(Cc3ccncc3)c(N[C@H](C)c3ccc(Cl)cc3)nc21`
A. label 1

Q. Reported inhibition reaches at least 20% for CC1c2ccccc2CCN1c1nc2c(cnn2C(C)(C)C)c(=O)n1Cc1ccc(F)cc1 (configuration not stated) ?
A. label 0

Q. Please check the record `CC(C)(C)n1ncc2c(=O)n(Cc3ccc(F)cc3)c(N[C@@H]3CCc4ccccc43)nc21` and state if its inhibition is at or above 20%.
A. label 1
